Hello, the source for this data is paper PMC4336329, in case you need it.

Record form. Attribute: hERG current change (%, negative = inhibition) at 10uM. Fill in for each entry.
# tgt: human ether-à-go-go-related gene (hERG) potassium channel (human)
# test details: primary screen, population patch clamp on CHO cells stably expressing hERG; higher = less effect of the substance;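 further: peak tail current of the secondary pulse compared with the same well before compound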
Out of some 310,000 compounds screened, about 14,000 (4.5%) showed an effect of 50% or more. The effect is printed as a negative number. The sample holds strong results, similar compounds and a random draw of the others, so the mix is not that of the screen.
A number alone suffices; assume %.

Short answer for CC(C)C(=O)Nc1ccc(N2CCN(C)CC2)c(F)c1 : hERG current change (%, negative = inhibition) at 10uM was 14.2

Short answer for Cc1ccc(OCCC(=O)NNC(=O)c2nn(C)c(=O)c3ccccc23)cc1 : hERG current change (%, negative = inhibition) at 10uM was -33.1

Short answer for Cc1ccc(SCC(=O)Nc2ccc(N3CCN(C)CC3)c(F)c2)cc1 : hERG current change (%, negative = inhibition) at 10uM was -64.4

Short answer for CCc1noc(C)c1C(=O)NNC(=O)c1nn(C)c(=O)c2ccccc12 : hERG current change (%, negative = inhibition) at 10uM was -50.2

Short answer for CN1CCN(c2ccc(NC(=O)CN3CCOCC3)cc2F)CC1 : hERG current change (%, negative = inhibition) at 10uM was 24.5

###

Record form. Attribute: hERG current change (%, negative = inhibition) at 10uM. Fill in for each entry.
# tgt: human ether-à-go-go-related gene (hERG) potassium channel (human, UniProt Q12809)
# Sequence (Q12809 whole entry, looked up): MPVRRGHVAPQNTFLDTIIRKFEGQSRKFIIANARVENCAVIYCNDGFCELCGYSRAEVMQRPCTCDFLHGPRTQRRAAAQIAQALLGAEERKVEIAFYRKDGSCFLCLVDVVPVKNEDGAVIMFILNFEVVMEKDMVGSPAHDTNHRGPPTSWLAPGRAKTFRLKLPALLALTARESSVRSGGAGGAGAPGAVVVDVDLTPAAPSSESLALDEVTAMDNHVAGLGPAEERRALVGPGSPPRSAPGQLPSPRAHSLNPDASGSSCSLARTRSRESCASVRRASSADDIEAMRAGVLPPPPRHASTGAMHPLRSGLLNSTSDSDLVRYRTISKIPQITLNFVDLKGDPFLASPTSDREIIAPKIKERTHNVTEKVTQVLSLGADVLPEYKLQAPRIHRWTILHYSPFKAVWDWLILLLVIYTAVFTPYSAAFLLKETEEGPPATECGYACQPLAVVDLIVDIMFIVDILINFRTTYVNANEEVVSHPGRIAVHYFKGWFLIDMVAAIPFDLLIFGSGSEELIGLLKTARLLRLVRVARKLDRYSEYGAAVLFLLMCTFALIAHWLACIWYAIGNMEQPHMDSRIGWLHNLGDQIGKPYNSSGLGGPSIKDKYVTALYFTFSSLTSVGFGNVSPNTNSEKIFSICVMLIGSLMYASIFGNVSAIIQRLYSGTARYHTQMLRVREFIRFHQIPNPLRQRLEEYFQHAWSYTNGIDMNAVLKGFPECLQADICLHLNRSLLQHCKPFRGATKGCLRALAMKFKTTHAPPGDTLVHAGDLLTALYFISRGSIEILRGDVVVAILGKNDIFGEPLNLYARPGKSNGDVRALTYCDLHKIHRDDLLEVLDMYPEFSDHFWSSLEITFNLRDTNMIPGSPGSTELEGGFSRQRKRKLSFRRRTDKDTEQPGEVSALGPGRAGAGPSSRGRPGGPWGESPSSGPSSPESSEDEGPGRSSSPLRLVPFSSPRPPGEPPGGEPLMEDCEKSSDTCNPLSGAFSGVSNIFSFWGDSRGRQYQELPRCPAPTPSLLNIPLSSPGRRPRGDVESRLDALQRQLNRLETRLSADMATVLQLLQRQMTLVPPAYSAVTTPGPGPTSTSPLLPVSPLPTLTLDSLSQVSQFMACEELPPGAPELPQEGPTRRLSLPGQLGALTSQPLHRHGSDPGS
# test details: primary screen, population patch clamp on CHO cells stably expressing hERG; higher = less effect of the substance
The whole screen tested about 310,000 compounds, of which about 14,000 (4.5%) showed an effect of 50% or more. Effects have a minus sign here. This is one part of a sample in which strong results are shown more often than they occur.
A number alone suffices; assume %.

Short answer for CCS(=O)(=O)N1CCC(C(=O)NCCN2CCN(Cc3ccccc3)CC2)CC1 : hERG current change (%, negative = inhibition) at 10uM was 2.07

Short answer for CCCNC(=O)N1CCC(Cc2ccccc2)CC1 : hERG current change (%, negative = inhibition) at 10uM was 16.6

Short answer for CC(C)N(Cc1nnc(-c2ccc(Cl)cc2)o1)C(=O)C1=COCCO1 : hERG current change (%, negative = inhibition) at 10uM was -19.9

Short answer for COc1ccccc1NC(=O)CN1CCN(CC(=O)Nc2ccc(OCc3ccccc3)cc2)CC1 : hERG current change (%, negative = inhibition) at 10uM was -25.1

Short answer for CC1CC(C)CN(S(=O)(=O)N2CCCC(C(=O)NCCCN3CCCCC3C)C2)C1 (stereo not shown) : hERG current change (%, negative = inhibition) at 10uM was -9.36

Short answer for Cc1ccc(SCc2cn3cccnc3n2)cc1 : hERG current change (%, negative = inhibition) at 10uM was 11.1

Short answer for CCCS(=O)(=O)N1CCC(C(=O)NCCc2ccccc2)CC1 : hERG current change (%, negative = inhibition) at 10uM was 1.42

Short answer for CN(C)CCN(Cc1ccccc1)C(=O)[C@H](Cc1ccccc1)N1C(=O)c2ccccc2C1=O : hERG current change (%, negative = inhibition) at 10uM was -30.1

Short answer for CCOc1ccc(NC(=S)NC(C)C(c2ccccc2)N2CCN(C)CC2)cc1 (stereo not shown) : hERG current change (%, negative = inhibition) at 10uM was -58.5

Short answer for COc1ccccc1NC(=O)CN1CCN(CC(=O)Nc2ccc(S(N)(=O)=O)cc2)CC1 : hERG current change (%, negative = inhibition) at 10uM was -27.8

Short answer for CC1CC(C)CN(S(=O)(=O)N2CCCC(C(=O)NCCCN3CCOCC3)C2)C1 (stereo not shown) : hERG current change (%, negative = inhibition) at 10uM was 19.1

Short answer for COc1ccc(CCN(C)C2CCCN(C(=O)CCSC)C2)cc1OC (stereo not shown) : hERG current change (%, negative = inhibition) at 10uM was -57.2

Short answer for COc1ccc(CCN(C)C2CCCN(C(=O)Cn3cnnn3)C2)cc1OC (stereo not shown) : hERG current change (%, negative = inhibition) at 10uM was 10.2

Short answer for CNCCc1c[nH]c2ccc(O)cc12.O=C(O)C(=O)O : hERG current change (%, negative = inhibition) at 10uM was 17.7

Short answer for COc1ccc(CCN(C)C2CCCN(C(=O)Cn3cccn3)C2)cc1OC (stereo not shown) : hERG current change (%, negative = inhibition) at 10uM was -6.28

Short answer for COC(=O)CCCC(=O)N1CCCC(N(C)CCc2ccccc2)C1 (stereo not shown) : hERG current change (%, negative = inhibition) at 10uM was -40.6

###

# tgt: human ether-à-go-go-related gene (hERG) potassium channel (human)
# test details: primary screen, population patch clamp on CHO cells stably expressing hERG; higher = less effect of the substance
Screen size: about 310,000 compounds; about 14,000 (4.5%) showed an effect of 50% or more. The effect is printed as a negative number. The sample as a whole holds a higher share of strong results than the screen did.
measure name: hERG current change (%, negative = inhibition) at 10uM

Short answer for COc1ccc(/C=N/NC(=O)c2cccc(NC(=O)c3ccccc3Cl)c2)cc1OC : hERG current change (%, negative = inhibition) at 10uM was -3.89%

Short answer for COc1ccc(C(=O)Nc2ccc(S(=O)(=O)N3CCCCC3)cc2)cc1OC : hERG current change (%, negative = inhibition) at 10uM was -9.83%

Short answer for COc1cccc(C(=O)Nc2cccc(NC(=O)c3ccccc3Cl)c2)c1 : hERG current change (%, negative = inhibition) at 10uM was -52%

Short answer for COc1cccc(C(=O)Nc2cccc(NC(C)=O)c2)c1 : hERG current change (%, negative = inhibition) at 10uM was -8.39%

Short answer for COc1ccc(C(=O)Nc2cccc(-c3nnc(-c4ccco4)o3)c2)cc1 : hERG current change (%, negative = inhibition) at 10uM was -37.4%

Short answer for COc1cc(C(=O)N/N=C/c2ccc(OC(=O)c3ccccc3Cl)c(OC)c2)ccc1O : hERG current change (%, negative = inhibition) at 10uM was 13.4%

Short answer for COc1ccc(NC(=O)c2ccc(Cl)nc2)cc1S(=O)(=O)N1CCOCC1 : hERG current change (%, negative = inhibition) at 10uM was -10.5%

Short answer for COc1cccc(C(=O)Nc2cccc(-c3nnc(-c4ccco4)o3)c2)c1 : hERG current change (%, negative = inhibition) at 10uM was -51.4%

###

# tgt: human ether-à-go-go-related gene (hERG) potassium channel (human, UniProt Q12809)
# test details: primary screen, population patch clamp on CHO cells stably expressing hERG; higher = less effect of the substance
Hit rate of the full screen: of about 310,000 compounds, about 14,000 (4.5%) showed an effect of 50% or more. The effect is printed as a negative number. Only a selection was taken, and strong results are over-represented in it overall.
measure name: hERG current change (%, negative = inhibition) at 10uM

Short answer for CN(C)S(=O)(=O)c1cccc(C(=O)OCC(=O)Nc2sccc2C#N)c1 : hERG current change (%, negative = inhibition) at 10uM was -2.79%

Short answer for O=C(Nc1nc2ccc(Cl)cc2s1)C1CC1 : hERG current change (%, negative = inhibition) at 10uM was 28.7%

Short answer for COc1ccc2nc(NC(=O)Cn3cnc4c(=O)n(C)c(=O)n(C)c43)sc2c1 : hERG current change (%, negative = inhibition) at 10uM was -67.9%

Short answer for COc1ccc(C(=O)N2CCN(Cc3cn[nH]c3-c3ccc(OC)cc3F)CC2)cc1 : hERG current change (%, negative = inhibition) at 10uM was -38.3%

Short answer for CC(C)(C)c1cc(C(=O)NNc2cccc(Cl)c2)n(Cc2ccccc2)n1 : hERG current change (%, negative = inhibition) at 10uM was -4.28%

Short answer for Cc1onc(-c2c(F)cccc2Cl)c1C(=O)c1ccccc1O : hERG current change (%, negative = inhibition) at 10uM was -0.367%

Short answer for Cl.FC(F)(F)c1ccc(CN2CCNCC2)cc1 : hERG current change (%, negative = inhibition) at 10uM was 0.155%

Short answer for Cc1ccc(S(=O)(=O)N(C)c2ccc(C(=O)O)cc2)cc1 : hERG current change (%, negative = inhibition) at 10uM was -17.1%

Short answer for O=C(NCC(=O)N1CCOCC1)c1ccc(Br)o1 : hERG current change (%, negative = inhibition) at 10uM was 17.4%

Short answer for O=C(NC(=S)N1CCOCC1)c1cc2ccccc2o1 : hERG current change (%, negative = inhibition) at 10uM was 12.7%

Short answer for CC(C)c1ccc2nc(NC(=O)C3CC3)sc2c1 : hERG current change (%, negative = inhibition) at 10uM was -55%

Short answer for O=C(CSc1nc(-c2ccccc2)c(-c2ccccc2)o1)NC1CCS(=O)(=O)C1 (stereo not shown) : hERG current change (%, negative = inhibition) at 10uM was -27.1%

Short answer for CCC(C)[C@H](NC(=O)OC(C)(C)C)C(=O)N/N=C/c1ccc2cc(OC)ccc2n1 (stereo partly shown) : hERG current change (%, negative = inhibition) at 10uM was -13.7%
